TARGET SYSTEM: Sodium channel protein type 5 subunit alpha (Homo sapiens, UniProt Q14524); note: assay procedure not described here
Sequence (Q14524 whole entry): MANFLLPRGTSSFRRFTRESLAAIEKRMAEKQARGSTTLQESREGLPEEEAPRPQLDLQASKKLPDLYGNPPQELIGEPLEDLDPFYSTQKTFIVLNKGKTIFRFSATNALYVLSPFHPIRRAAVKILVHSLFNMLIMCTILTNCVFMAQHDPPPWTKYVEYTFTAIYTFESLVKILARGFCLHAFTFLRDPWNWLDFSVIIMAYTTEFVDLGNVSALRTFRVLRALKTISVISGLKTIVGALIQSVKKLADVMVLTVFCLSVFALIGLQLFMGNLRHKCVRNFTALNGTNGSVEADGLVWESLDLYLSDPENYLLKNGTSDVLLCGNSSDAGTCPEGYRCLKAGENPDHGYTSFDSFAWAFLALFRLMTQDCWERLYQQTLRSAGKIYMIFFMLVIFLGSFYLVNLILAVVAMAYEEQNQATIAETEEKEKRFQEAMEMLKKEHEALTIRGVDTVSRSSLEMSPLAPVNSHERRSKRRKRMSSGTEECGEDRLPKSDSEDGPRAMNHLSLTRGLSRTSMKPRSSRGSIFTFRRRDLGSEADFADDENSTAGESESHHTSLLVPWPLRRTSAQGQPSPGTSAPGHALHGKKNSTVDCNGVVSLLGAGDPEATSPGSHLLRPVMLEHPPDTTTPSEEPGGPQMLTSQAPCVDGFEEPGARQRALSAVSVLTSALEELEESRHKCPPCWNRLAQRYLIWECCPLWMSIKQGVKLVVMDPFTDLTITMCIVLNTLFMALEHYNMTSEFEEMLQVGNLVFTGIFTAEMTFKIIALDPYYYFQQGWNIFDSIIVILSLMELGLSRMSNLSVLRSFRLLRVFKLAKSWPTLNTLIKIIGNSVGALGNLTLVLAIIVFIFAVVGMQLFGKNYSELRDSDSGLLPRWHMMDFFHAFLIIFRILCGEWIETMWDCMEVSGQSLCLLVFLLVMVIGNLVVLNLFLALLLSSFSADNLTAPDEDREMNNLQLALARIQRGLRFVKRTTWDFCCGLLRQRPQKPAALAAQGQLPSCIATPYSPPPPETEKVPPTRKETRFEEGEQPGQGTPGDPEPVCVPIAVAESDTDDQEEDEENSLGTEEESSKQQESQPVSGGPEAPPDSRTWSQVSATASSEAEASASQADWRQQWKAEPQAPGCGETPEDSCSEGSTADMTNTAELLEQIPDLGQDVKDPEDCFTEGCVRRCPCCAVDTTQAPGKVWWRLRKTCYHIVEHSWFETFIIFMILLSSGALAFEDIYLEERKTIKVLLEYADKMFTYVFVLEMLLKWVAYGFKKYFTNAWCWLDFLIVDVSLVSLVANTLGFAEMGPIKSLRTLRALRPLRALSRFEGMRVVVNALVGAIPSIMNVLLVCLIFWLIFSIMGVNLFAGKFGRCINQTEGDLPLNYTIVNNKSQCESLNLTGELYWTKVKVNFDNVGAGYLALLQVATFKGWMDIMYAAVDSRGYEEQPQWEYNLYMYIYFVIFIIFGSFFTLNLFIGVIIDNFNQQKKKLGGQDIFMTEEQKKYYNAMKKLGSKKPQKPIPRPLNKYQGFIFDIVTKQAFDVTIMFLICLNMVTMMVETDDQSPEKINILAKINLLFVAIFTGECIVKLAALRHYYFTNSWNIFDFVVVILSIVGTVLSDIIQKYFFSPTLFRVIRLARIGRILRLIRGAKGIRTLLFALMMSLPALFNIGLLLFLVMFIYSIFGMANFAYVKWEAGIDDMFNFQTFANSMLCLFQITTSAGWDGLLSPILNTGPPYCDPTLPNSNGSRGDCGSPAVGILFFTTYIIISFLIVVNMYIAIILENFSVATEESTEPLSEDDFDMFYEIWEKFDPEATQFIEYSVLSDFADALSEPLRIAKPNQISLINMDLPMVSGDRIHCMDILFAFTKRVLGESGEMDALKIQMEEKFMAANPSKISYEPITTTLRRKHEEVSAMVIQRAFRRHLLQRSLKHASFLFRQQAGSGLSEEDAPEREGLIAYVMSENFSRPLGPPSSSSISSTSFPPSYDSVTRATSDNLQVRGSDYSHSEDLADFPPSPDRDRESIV
Type: functional, cell-based
Measured AC50 values are reported for all entries that follow.
MEASUREMENT TYPE: AC50 (µM)

[[record]]
compound = "C=C(C)[C@@H]1CCC(C)=C[C@H]1c1c(O)cc(CCCCC)cc1O [CANNABIDIOL]"
target_system = "Sodium channel protein type 5 subunit alpha (Homo sapiens, UniProt Q14524)"
inequality_sign = ">"
meas_value = 10

[[record]]
compound = "O=C(CCCN1CC=C(n2c(=O)[nH]c3ccccc32)CC1)c1ccc(F)cc1 [DROPERIDOL]"
target_system = "Sodium channel protein type 5 subunit alpha (Homo sapiens, UniProt Q14524)"
inequality_sign = "="
meas_value = 49

[[record]]
compound = "CNCC[C@H](Oc1cccc2ccccc12)c1cccs1 [DULOXETINE]"
target_system = "Sodium channel protein type 5 subunit alpha (Homo sapiens, UniProt Q14524)"
inequality_sign = "="
meas_value = 5.3

[[record]]
compound = "CCCN(CC)C(CC)C(=O)Nc1c(C)cccc1C (centres undefined) [ETIDOCAINE]"
target_system = "Sodium channel protein type 5 subunit alpha (Homo sapiens, UniProt Q14524)"
inequality_sign = "="
meas_value = 28


====

Here, each record is paired with measured AC50 data.
TARGET SYSTEM: Gamma-aminobutyric acid receptor subunit alpha-1 (Rattus norvegicus, UniProt P62813); note: assay procedure not described here
Sequence (P62813 whole entry): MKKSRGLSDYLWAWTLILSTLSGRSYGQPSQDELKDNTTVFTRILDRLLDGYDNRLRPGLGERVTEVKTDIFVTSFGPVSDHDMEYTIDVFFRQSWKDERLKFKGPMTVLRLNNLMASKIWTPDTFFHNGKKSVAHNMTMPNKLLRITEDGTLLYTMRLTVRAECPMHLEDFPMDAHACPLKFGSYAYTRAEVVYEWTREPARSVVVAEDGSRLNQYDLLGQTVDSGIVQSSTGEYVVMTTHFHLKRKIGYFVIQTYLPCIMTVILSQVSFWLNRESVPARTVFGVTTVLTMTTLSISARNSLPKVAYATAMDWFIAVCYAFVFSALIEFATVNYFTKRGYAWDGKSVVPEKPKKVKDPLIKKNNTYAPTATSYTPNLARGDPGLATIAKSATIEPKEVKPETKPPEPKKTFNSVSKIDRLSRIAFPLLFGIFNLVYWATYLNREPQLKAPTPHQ
Format: functional
MEASUREMENT TYPE: AC50

[[record]]
compound = "NS(=O)(=O)c1cc(C2(O)NC(=O)c3ccccc32)ccc1Cl (stereo not drawn) [CHLORTHALIDONE]"
measurement_type = "AC50"
meas_value = "> 10 µM"

[[record]]
compound = "C[C@@H]1CCC[C@H](C)N1NC(=O)c1ccc(Cl)c(S(N)(=O)=O)c1 [CLOPAMIDE]"
measurement_type = "AC50"
meas_value = "> 30 µM"

[[record]]
compound = "COc1ccc2c(c1)[C@]13CCCC[C@@H]1[C@H](C2)N(C)CC3 [DEXTROMETHORPHAN]"
measurement_type = "AC50"
meas_value = "> 10 µM"

[[record]]
compound = "CO/N=C(\\C(=O)N[C@@H]1C(=O)N2C(C(=O)O)=C(COC(N)=O)CS[C@H]12)c1ccco1 [CEFUROXIME]"
measurement_type = "AC50"
meas_value = "> 30 µM"

[[record]]
compound = "CNC(=O)Oc1ccc2c(c1)[C@]1(C)CCN(C)[C@@H]1N2C [PHYSOSTIGMINE]"
measurement_type = "AC50"
meas_value = "> 30 µM"

[[record]]
compound = "CCC(=O)O[C@@H](O[P@](=O)(CCCCc1ccccc1)CC(=O)N1C[C@H](C2CCCCC2)C[C@H]1C(=O)O)C(C)C [FOSINOPRIL]"
measurement_type = "AC50"
meas_value = "> 30 µM"

[[record]]
compound = "CC(=O)OCC(CCn1cnc2cnc(N)nc21)COC(C)=O [FAMCICLOVIR]"
measurement_type = "AC50"
meas_value = "> 10 µM"

[[record]]
compound = "CCCN(CCc1cccs1)[C@H]1CCc2c(O)cccc2C1 [ROTIGOTINE]"
measurement_type = "AC50"
meas_value = "> 30 µM"


====

TARGET SYSTEM: 3',5'-cyclic-AMP phosphodiesterase 4D (Homo sapiens, UniProt Q08499); note: assay procedure not described here
Sequence (Q08499 whole entry): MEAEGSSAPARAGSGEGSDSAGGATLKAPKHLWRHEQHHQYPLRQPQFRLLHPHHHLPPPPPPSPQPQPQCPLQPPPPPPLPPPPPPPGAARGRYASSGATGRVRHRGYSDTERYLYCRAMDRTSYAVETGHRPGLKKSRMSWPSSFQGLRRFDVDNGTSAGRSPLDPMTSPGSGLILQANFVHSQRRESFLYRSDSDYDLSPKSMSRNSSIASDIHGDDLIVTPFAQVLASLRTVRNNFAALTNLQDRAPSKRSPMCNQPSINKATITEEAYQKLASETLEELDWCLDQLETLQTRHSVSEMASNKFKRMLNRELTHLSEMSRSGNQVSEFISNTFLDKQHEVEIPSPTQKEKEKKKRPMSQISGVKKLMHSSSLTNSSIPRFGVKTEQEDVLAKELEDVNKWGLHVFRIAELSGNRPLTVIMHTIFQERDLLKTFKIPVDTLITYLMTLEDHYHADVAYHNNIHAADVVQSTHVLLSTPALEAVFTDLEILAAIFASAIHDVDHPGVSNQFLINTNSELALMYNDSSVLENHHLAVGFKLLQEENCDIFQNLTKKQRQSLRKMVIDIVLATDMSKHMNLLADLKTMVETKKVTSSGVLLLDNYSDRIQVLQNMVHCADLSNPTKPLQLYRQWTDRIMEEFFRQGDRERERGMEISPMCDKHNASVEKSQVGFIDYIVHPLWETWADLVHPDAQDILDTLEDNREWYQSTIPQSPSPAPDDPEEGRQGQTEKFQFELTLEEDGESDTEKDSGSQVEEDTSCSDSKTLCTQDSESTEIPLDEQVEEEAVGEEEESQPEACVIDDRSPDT
Assay type: functional
AC50 reference
MEASUREMENT TYPE: AC50

[[record]]
molecule = "CC(C)N(CCCCOCC(=O)NS(C)(=O)=O)c1cnc(-c2ccccc2)c(-c2ccccc2)n1"
target_system = "3',5'-cyclic-AMP phosphodiesterase 4D (Homo sapiens, UniProt Q08499)"
measurement_type = "AC50"
meas_value = "4.81 µM"

[[record]]
molecule = "CCOc1cc(CC(=O)N[C@@H](CC(C)C)c2ccccc2N2CCCCC2)ccc1C(=O)O [REPAGLINIDE]"
target_system = "3',5'-cyclic-AMP phosphodiesterase 4D (Homo sapiens, UniProt Q08499)"
measurement_type = "AC50"
meas_value = "9.6 µM"

[[record]]
molecule = "CCN(CC)C(=O)C1CN2CCc3cc(OC)c(OC)cc3C2CC1OC(C)=O (stereo not given) [BENZQUINAMIDE]"
target_system = "3',5'-cyclic-AMP phosphodiesterase 4D (Homo sapiens, UniProt Q08499)"
measurement_type = "AC50"
meas_value = "> 30 µM"

[[record]]
molecule = "CNCCC=C1c2ccccc2CCc2ccccc21"
target_system = "3',5'-cyclic-AMP phosphodiesterase 4D (Homo sapiens, UniProt Q08499)"
measurement_type = "AC50"
meas_value = "7.5 µM"

[[record]]
molecule = "N[C@H](Cc1cc(I)c(Oc2cc(I)c(O)c(I)c2)c(I)c1)C(=O)O"
target_system = "3',5'-cyclic-AMP phosphodiesterase 4D (Homo sapiens, UniProt Q08499)"
measurement_type = "AC50"
meas_value = "0.26 µM"

[[record]]
molecule = "CN1CCN(CCCN2c3ccccc3Sc3ccc(S(=O)(=O)N(C)C)cc32)CC1"
target_system = "3',5'-cyclic-AMP phosphodiesterase 4D (Homo sapiens, UniProt Q08499)"
measurement_type = "AC50"
meas_value = "13 µM"

[[record]]
molecule = "O=C(Nc1nc(-c2cc(Cl)cs2)c(N2CCN(C3CCCCC3)CC2)s1)c1cnc(N2CCC(C(=O)O)CC2)c(Cl)c1"
target_system = "3',5'-cyclic-AMP phosphodiesterase 4D (Homo sapiens, UniProt Q08499)"
measurement_type = "AC50"
meas_value = "> 10 µM"

[[record]]
molecule = "C#Cc1cccc(Nc2ncnc3cc(OCCOC)c(OCCOC)cc23)c1"
target_system = "3',5'-cyclic-AMP phosphodiesterase 4D (Homo sapiens, UniProt Q08499)"
measurement_type = "AC50"
meas_value = "> 30 µM"

[[record]]
molecule = "CC(C)C[C@H](CN)CC(=O)O"
target_system = "3',5'-cyclic-AMP phosphodiesterase 4D (Homo sapiens, UniProt Q08499)"
measurement_type = "AC50"
meas_value = "> 30 µM"

[[record]]
molecule = "COC1=C(OC)C(=O)C(CCCCCCCCCCO)=C(C)C1=O"
target_system = "3',5'-cyclic-AMP phosphodiesterase 4D (Homo sapiens, UniProt Q08499)"
measurement_type = "AC50"
meas_value = "> 10 µM"

[[record]]
molecule = "O=C1CN=C(c2ccccc2)c2cc(Cl)ccc2N1"
target_system = "3',5'-cyclic-AMP phosphodiesterase 4D (Homo sapiens, UniProt Q08499)"
measurement_type = "AC50"
meas_value = "12 µM"

[[record]]
molecule = "CC(CCc1ccccc1)NC(C)C(O)c1ccc(O)cc1 (stereo not given)"
target_system = "3',5'-cyclic-AMP phosphodiesterase 4D (Homo sapiens, UniProt Q08499)"
measurement_type = "AC50"
meas_value = "> 30 µM"

[[record]]
molecule = "CC(C)c1cc2c(cc1S(=O)(=O)O)[C@@]1(C)CCC[C@@](C)(C(=O)O)[C@@H]1CC2"
target_system = "3',5'-cyclic-AMP phosphodiesterase 4D (Homo sapiens, UniProt Q08499)"
measurement_type = "AC50"
meas_value = "> 30 µM"

[[record]]
molecule = "CCSc1ccc2c(c1)N(CCCN1CCN(C)CC1)c1ccccc1S2"
target_system = "3',5'-cyclic-AMP phosphodiesterase 4D (Homo sapiens, UniProt Q08499)"
measurement_type = "AC50"
meas_value = "16 µM"

[[record]]
molecule = "COc1ccc2c(c1)[C@]13CCCC[C@@H]1[C@H](C2)N(C)CC3"
target_system = "3',5'-cyclic-AMP phosphodiesterase 4D (Homo sapiens, UniProt Q08499)"
measurement_type = "AC50"
meas_value = "> 30 µM"

[[record]]
molecule = "CCCNC(C)C(=O)Nc1ccccc1C (stereo not given)"
target_system = "3',5'-cyclic-AMP phosphodiesterase 4D (Homo sapiens, UniProt Q08499)"
measurement_type = "AC50"
meas_value = "> 30 µM"

[[record]]
molecule = "C=CC(N)CCC(=O)O (stereo not given)"
target_system = "3',5'-cyclic-AMP phosphodiesterase 4D (Homo sapiens, UniProt Q08499)"
measurement_type = "AC50"
meas_value = "> 30 µM"

[[record]]
molecule = "O=C(O)c1ccccc1Nc1cccc(C(F)(F)F)c1"
target_system = "3',5'-cyclic-AMP phosphodiesterase 4D (Homo sapiens, UniProt Q08499)"
measurement_type = "AC50"
meas_value = "> 30 µM"

[[record]]
molecule = "O=C(O)c1ccccc1OP(=O)(O)O"
target_system = "3',5'-cyclic-AMP phosphodiesterase 4D (Homo sapiens, UniProt Q08499)"
measurement_type = "AC50"
meas_value = "> 30 µM"

[[record]]
molecule = "NS(=O)(=O)c1cc2c(cc1C(F)(F)F)NC(Cc1ccccc1)NS2(=O)=O (stereo not given) [BENDROFLUMETHIAZIDE]"
target_system = "3',5'-cyclic-AMP phosphodiesterase 4D (Homo sapiens, UniProt Q08499)"
measurement_type = "AC50"
meas_value = "> 30 µM"

[[record]]
molecule = "CCCN(CC)C(CC)C(=O)Nc1c(C)cccc1C (stereo not given)"
target_system = "3',5'-cyclic-AMP phosphodiesterase 4D (Homo sapiens, UniProt Q08499)"
measurement_type = "AC50"
meas_value = "> 30 µM"

[[record]]
molecule = "CO/N=C(\\C(=O)N[C@@H]1C(=O)N2C(C(=O)[O-])=C(C[n+]3cccc4c3CCC4)CS[C@H]12)c1csc(N)n1"
target_system = "3',5'-cyclic-AMP phosphodiesterase 4D (Homo sapiens, UniProt Q08499)"
measurement_type = "AC50"
meas_value = "> 30 µM"

[[record]]
molecule = "CCCCCCNC(=O)n1cc(F)c(=O)[nH]c1=O"
target_system = "3',5'-cyclic-AMP phosphodiesterase 4D (Homo sapiens, UniProt Q08499)"
measurement_type = "AC50"
meas_value = "> 30 µM"

[[record]]
molecule = "CC#CCn1c(N2CCC[C@@H](N)C2)nc2c1c(=O)n(Cc1nc(C)c3ccccc3n1)c(=O)n2C"
target_system = "3',5'-cyclic-AMP phosphodiesterase 4D (Homo sapiens, UniProt Q08499)"
measurement_type = "AC50"
meas_value = "> 10 µM"

[[record]]
molecule = "COc1cc2c(Nc3ccc(Br)cc3F)ncnc2cc1OCC1CCN(C)CC1"
target_system = "3',5'-cyclic-AMP phosphodiesterase 4D (Homo sapiens, UniProt Q08499)"
measurement_type = "AC50"
meas_value = "> 30 µM"

[[record]]
molecule = "CC(=O)Nc1c(I)c(C(=O)N[C@H]2C(O)O[C@H](CO)[C@@H](O)[C@@H]2O)c(I)c(N(C)C(C)=O)c1I (stereo not given in full) [METRIZAMIDE]"
target_system = "3',5'-cyclic-AMP phosphodiesterase 4D (Homo sapiens, UniProt Q08499)"
measurement_type = "AC50"
meas_value = "> 30 µM"

[[record]]
molecule = "CC(=O)S[C@@H]1CC2=CC(=O)CC[C@]2(C)[C@H]2CC[C@@]3(C)[C@@H](CC[C@@]34CCC(=O)O4)[C@H]12"
target_system = "3',5'-cyclic-AMP phosphodiesterase 4D (Homo sapiens, UniProt Q08499)"
measurement_type = "AC50"
meas_value = "> 30 µM"

[[record]]
molecule = "COC(=O)[C@H](c1ccccc1Cl)N1CCc2sccc2C1"
target_system = "3',5'-cyclic-AMP phosphodiesterase 4D (Homo sapiens, UniProt Q08499)"
measurement_type = "AC50"
meas_value = "> 30 µM"

[[record]]
molecule = "CCCCC[C@H](O)/C=C/[C@H]1[C@H](O)CC(=O)[C@@H]1C/C=C\\CCCC(=O)O"
target_system = "3',5'-cyclic-AMP phosphodiesterase 4D (Homo sapiens, UniProt Q08499)"
measurement_type = "AC50"
meas_value = "11 µM"

[[record]]
molecule = "CN1[C@@H]2CC[C@H]1C[C@@H](OC(=O)c1c[nH]c3ccccc13)C2"
target_system = "3',5'-cyclic-AMP phosphodiesterase 4D (Homo sapiens, UniProt Q08499)"
measurement_type = "AC50"
meas_value = "> 30 µM"

[[record]]
molecule = "Cc1ccc(=O)n(-c2ccccc2)c1"
target_system = "3',5'-cyclic-AMP phosphodiesterase 4D (Homo sapiens, UniProt Q08499)"
measurement_type = "AC50"
meas_value = "> 30 µM"

[[record]]
molecule = "Cc1ccc2c(-c3ccccc3)nc(=O)n(C(C)C)c2c1"
target_system = "3',5'-cyclic-AMP phosphodiesterase 4D (Homo sapiens, UniProt Q08499)"
measurement_type = "AC50"
meas_value = "0.81 µM"

[[record]]
molecule = "CNC(=O)Oc1ccc2c(c1)[C@]1(C)CCN(C)[C@@H]1N2C"
target_system = "3',5'-cyclic-AMP phosphodiesterase 4D (Homo sapiens, UniProt Q08499)"
measurement_type = "AC50"
meas_value = "> 30 µM"

[[record]]
molecule = "CC1(C)O[C@@H]2C[C@H]3[C@@H]4C[C@H](F)C5=CC(=O)C=C[C@]5(C)[C@H]4[C@@H](O)C[C@]3(C)[C@]2(C(=O)CO)O1 [FLUNISOLIDE]"
target_system = "3',5'-cyclic-AMP phosphodiesterase 4D (Homo sapiens, UniProt Q08499)"
measurement_type = "AC50"
meas_value = "> 30 µM"

[[record]]
molecule = "Nc1nc(O)c2ncn(COC(CO)CO)c2n1"
target_system = "3',5'-cyclic-AMP phosphodiesterase 4D (Homo sapiens, UniProt Q08499)"
measurement_type = "AC50"
meas_value = "> 30 µM"

